Recorded normalized RNA/DNA level without ligand (log10), one value per entry.
B1: library; a variant is named by its letters at N, in order (parent)
chain: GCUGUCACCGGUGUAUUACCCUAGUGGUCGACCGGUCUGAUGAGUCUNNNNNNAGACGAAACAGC

Variants of: B1
METHOD SUMMARY: normalized RNA/DNA level without ligand (relative to sTRSVctl = 100) (log10 (% of sTRSVctl)); ligand: hypoxanthine (xanthine aptamer); higher = less ribozyme self-cleavage, higher mRNA level
CONDITION PARAMETERS: HEK293T, reporter: mCherry (pCS4076), ligand present: no
Lab note: jot down the number only; don't add units.

Here are 3 variants together with their reported answers.
GCUGUCACCGGUGUAUUACCCUAGUGGUCGACCGGUCUGAUGAGUCUCCAGCGAGACGAAACAGC [CCAGCG] : 1.82
GCUGUCACCGGUGUAUUACCCUAGUGGUCGACCGGUCUGAUGAGUCUGUAAAUAGACGAAACAGC [GUAAAU] : 1.78
GCUGUCACCGGUGUAUUACCCUAGUGGUCGACCGGUCUGAUGAGUCUGUGCGGAGACGAAACAGC [GUGCGG] : 1.38

Q: Identify measured normalized RNA/DNA level without ligand (log10) associated with GCUGUCACCGGUGUAUUACCCUAGUGGUCGACCGGUCUGAUGAGUCUCAUCAUAGACGAAACAGC [CAUCAU]
Ans: 1.88

Q: Identify measured normalized RNA/DNA level without ligand (log10) associated with GCUGUCACCGGUGUAUUACCCUAGUGGUCGACCGGUCUGAUGAGUCUUACGGGAGACGAAACAGC [UACGGG]
Ans: 1.51
